study-target: NADPH oxidase 5 (Homo sapiens) (UniProt Q96PH1)
Sequence (Q96PH1 whole entry, looked up): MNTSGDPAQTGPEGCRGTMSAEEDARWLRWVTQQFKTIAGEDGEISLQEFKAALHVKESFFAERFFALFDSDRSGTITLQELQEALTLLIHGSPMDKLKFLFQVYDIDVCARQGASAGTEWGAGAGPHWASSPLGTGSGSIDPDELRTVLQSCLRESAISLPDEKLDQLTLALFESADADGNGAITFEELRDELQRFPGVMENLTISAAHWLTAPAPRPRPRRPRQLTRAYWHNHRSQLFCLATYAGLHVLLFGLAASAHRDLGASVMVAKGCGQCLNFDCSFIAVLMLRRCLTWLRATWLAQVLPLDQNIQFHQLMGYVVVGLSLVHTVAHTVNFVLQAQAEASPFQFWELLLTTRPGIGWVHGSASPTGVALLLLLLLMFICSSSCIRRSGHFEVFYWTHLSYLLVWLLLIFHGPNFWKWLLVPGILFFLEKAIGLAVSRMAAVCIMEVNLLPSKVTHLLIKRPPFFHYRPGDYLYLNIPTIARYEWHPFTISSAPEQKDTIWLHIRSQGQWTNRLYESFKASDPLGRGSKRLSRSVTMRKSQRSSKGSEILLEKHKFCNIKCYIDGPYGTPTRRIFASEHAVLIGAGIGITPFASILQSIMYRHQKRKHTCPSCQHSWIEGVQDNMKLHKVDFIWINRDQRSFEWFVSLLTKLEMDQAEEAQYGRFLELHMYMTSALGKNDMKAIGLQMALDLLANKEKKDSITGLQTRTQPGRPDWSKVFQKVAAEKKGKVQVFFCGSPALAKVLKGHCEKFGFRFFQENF
assay-protocol: NOX5-dependent H2O2 signal modulators, primary screen, NOX inhibitor project, cell-based, HEK293-NOX5, Amplex Red fluorescence (AID 1161)
conditions: HEK293-NOX5, ionomycin, 45 min, higher = more signal
Hi, to clarify the labels: Yes covers z-score from -1 upward, No covers anything below -1.

Example results:
INSERT INTO assay_data (molecule, cat) VALUES
  ('COc1ccc([Si](C)(C)[C@@H]2[C@@H](CCO)O[C@]3(C(=O)N(Cc4cccc(N5C(=O)c6cccc7cccc5c67)c4)c4ccccc43)[C@H]2C)cc1', 'Yes'),
  ('O=C1NC(=O)C2C1C=CC(C(O)c1ccc(Br)cc1)N2Nc1ccccn1 (stereo not given)', 'No'),
  ('COC(=O)C[C@H]1O[C@]2(C(=O)N(C)c3ccccc32)[C@@H](C)[C@@H]1[Si](C)(C)c1ccc(C)cc1', 'No');

Please check the record CO[C@H]1O[C@H](CO)[C@@H](OC(=O)c2ccc(Br)cc2)[C@@H]2OC(=O)[C@@H](Cc3ccc4ccccc4c3)C/C=C/C[C@H](Cc3ccc4ccccc4c3)C(=O)O[C@@H]12 and state if its z-score is at or above -1.
No

Please check the record C=CC[C@@]12N=C(c3ccc(OCCCO)cc3)O[C@@H]1c1ccccc1N(CCS(=O)(=O)c1ccccc1)C2=O and state if its z-score is at or above -1.
No

Please check the record C=CCN1C(=O)[C@@]2(CCC(=O)OC(C)(C)C)N=C(c3ccc(OCCCO)cc3)O[C@H]2c2ccccc21 and state if its z-score is at or above -1.
Yes

Please check the record COC(=O)C1(Cc2ccccc2)C=C2C(=C(C(C)C)C(=O)C2C)CN1 (stereo not given) and state if its z-score is at or above -1.
No

Please check the record C=C(/C(=C/C[C@@H](OC(=O)c1ccncc1)c1ccc(OCCO)cc1)c1cc(C(=O)OC)ccc1OC)C(C)C and state if its z-score is at or above -1.
No

Please check the record C=C(CCCC)/C(=C/C[C@@H](OC(C)=O)c1ccc(CO)o1)c1cc(C(=O)OC)ccc1OC and state if its z-score is at or above -1.
No

Please check the record Cc1ccc(F)cc1S(=O)(=O)N[C@@H]1CCN(Cc2ccc(OC(C)C)cc2)C1 and state if its z-score is at or above -1.
No

Please check the record CC(C)(C)OC(=O)CC[C@]1(C(=O)O)N=C(c2ccc(OCCCO)cc2)O[C@H]1c1ccccc1 and state if its z-score is at or above -1.
Yes

The reported numbers originate from PubChem BioAssay.
